Sourced from ChEMBL document CHEMBL4184220

test-name: Half life in Wistar rat at 5 mg/kg, po administered as triple or quadruple dosing measured after 1 to 24 hrs by reverse-phase HPLC method
Assay type: ADME, organism-based
experimental-context: in vivo
attribute-measured: half-life (h)
Express your answer in h, writing the number without its unit.

{"columns": ["smiles-repr", "unit-text", "half-life"],
 "data": [
  ["O=C(Nc1ccc(Cl)cc1C(=O)[O-])c1cccc(-c2cncc3ccccc23)c1.[Na+]", "h", 9.2],
  ["O=C(Nc1ccc(Cl)cc1C(=O)[O-])c1cccc(-c2cccc3cnccc23)c1.[Na+]", "h", 10.5],
  ["O=C(CSCC(=O)Nc1ccc(Cl)cc1C(=O)O)Nc1cccc(-c2ccoc2)c1", "h", 2.6]
]}

Requested field: half-life. Item: "O=C(Nc1ccc(Cl)cc1C(=O)O)c1ccc(C2CCOCC2)cc1"
1.8

Record: "O=C(Nc1ccc(Cl)cc1C(=O)O)c1ccc(-c2cccs2)cc1"
1.9
